Measured On: full length N-terminally FLAG-tagged PARP1 (Homo sapiens)
Measurement Protocol: PARP1 probe displacement HTRF assay
Cond: read-out: PARP1 HTRF; binned Kd, PARP1 probe displacement HTRF
Reported Kd by item:

| Compound | Kd |
| --- | --- |
| CNC(=O)c1ccc(N2CCC(N3CCC(c4nc5c(F)ccc(F)c5c(=O)[nH]4)C3)CC2)cn1 (single isomer, unassigned) [Compound 182b] | < 0.01 µM |

Data point: CNC(=O)c1ccc(N2CCC(N3CCC(c4ccc(OC)c(=O)[nH]4)C3)CC2)cn1 (single isomer, unassigned) [Compound 148a] ; Kd = > 10 µM

// recorded Kd for CNC(=O)c1ccc(N2CCC(N3CCCC(c4nc5ccccc5c(=O)[nH]4)C3)CC2)cc1 (single isomer, unassigned) [Compound 82b] : 0.01 to 0.1 µM

* * *

Measured On: full length N-terminally FLAG-tagged PARP1 (Homo sapiens, UniProt P09874)
Sequence (P09874 whole entry): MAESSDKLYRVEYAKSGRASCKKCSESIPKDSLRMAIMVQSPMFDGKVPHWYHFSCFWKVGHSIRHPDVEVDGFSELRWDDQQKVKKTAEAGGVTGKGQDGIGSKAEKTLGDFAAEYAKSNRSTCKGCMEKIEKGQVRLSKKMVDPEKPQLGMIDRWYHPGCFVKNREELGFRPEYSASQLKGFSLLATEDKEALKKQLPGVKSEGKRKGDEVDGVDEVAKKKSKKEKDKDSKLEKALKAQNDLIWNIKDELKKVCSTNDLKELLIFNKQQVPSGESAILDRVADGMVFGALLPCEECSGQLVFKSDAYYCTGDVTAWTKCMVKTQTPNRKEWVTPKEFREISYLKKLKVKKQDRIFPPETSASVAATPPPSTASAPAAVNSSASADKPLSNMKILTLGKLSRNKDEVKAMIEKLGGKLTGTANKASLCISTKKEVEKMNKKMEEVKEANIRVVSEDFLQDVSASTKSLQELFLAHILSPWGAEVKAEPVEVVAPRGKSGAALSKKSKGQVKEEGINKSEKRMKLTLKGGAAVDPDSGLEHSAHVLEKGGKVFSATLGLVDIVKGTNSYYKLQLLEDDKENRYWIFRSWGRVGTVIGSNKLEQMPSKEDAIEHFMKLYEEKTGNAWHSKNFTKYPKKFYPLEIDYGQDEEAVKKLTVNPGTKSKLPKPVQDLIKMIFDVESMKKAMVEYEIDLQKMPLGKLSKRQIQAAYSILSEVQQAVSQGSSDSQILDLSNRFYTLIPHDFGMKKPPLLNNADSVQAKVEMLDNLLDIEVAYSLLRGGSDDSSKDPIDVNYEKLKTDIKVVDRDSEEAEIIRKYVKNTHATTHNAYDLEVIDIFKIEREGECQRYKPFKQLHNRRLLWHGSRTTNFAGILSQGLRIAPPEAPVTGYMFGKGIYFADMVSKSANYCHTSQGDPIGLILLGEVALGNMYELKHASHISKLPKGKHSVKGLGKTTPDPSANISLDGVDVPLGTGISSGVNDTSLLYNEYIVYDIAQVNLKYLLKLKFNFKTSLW
Measurement Protocol: PARP1 probe displacement HTRF assay
Cond: read-out: PARP1 HTRF; binned Kd, probe displacement HTRF
Assay Endpoint: Kd

| Compound | Result |
| --- | --- |
| N#Cc1nc(C(=O)NC2CC2)ccc1N1CCC(N2CCC(c3cc4cccc(F)c4c(=O)[nH]3)C2)CC1 (single isomer, unassigned) [Compound 410b] | < 10 nM |
| CNC(=O)c1ncc(N2CCC(N3CCC(c4cc5ccc(F)cc5c(=O)[nH]4)C3)CC2)c(C)n1 (single isomer, unassigned) [Compound 265a] | < 10 nM |
| CNC(=O)c1ccc(N2CCC(N3CCC(c4cnc(CC(F)(F)F)c(=O)[nH]4)C3)CC2)cn1 (single isomer, unassigned) [Compound 287a] | 10 to 100 nM |
| CCCc1ccc(C2CCN(C3CCN(c4ccc(C(=O)NC)nc4)CC3)C2)[nH]c1=O (single isomer, unassigned) [Compound 261a] | 1000 to 10000 nM |
| CNC(=O)c1ccc(N2CCC(N3CCC(c4cc5ccccc5c(=O)[nH]4)C3)CC2)s1 (racemic) [Compound 319rac] | 1000 to 10000 nM |

Kd of CNC(=O)c1cc(C(F)(F)F)c(N2CCC(N3CCC(c4cc5cccc(F)c5c(=O)[nH]4)C3)CC2)cn1 (single isomer, unassigned) [Compound 308a] , assay on full length N-terminally FLAG-tagged PARP1 (Homo sapiens, UniProt P09874), is 100 to 1000 nM

* * *

Reported pKd values for a set of compounds
Measured On: full length N-terminally FLAG-tagged PARP1 (Homo sapiens, UniProt P09874)
Measurement Protocol: PARP1 probe displacement HTRF assay
Cond: read-out: PARP1 HTRF; binned Kd, probe displacement HTRF
pKd: −log10 of the molar value.

Completed entries (count: 8):
| Compound | pKd |
| --- | --- |
| O=c1[nH]c2ccc(N3CCC(N4CCC(c5cc6ccccc6c(=O)[nH]5)C4)CC3)cc2[nH]1 (racemic) | > 8.00 |
| O=C(NCC(F)F)c1ccc(N2CCC(N3CCC(c4cc5cccc(F)c5c(=O)[nH]4)C3)CC2)c(F)n1 (single isomer, unassigned) [Compound 390a] | > 8.00 |
| CNC(=O)c1ccc(N2CCC(N3CCC(c4cc5ncc(F)cc5c(=O)[nH]4)C3)CC2)cn1 (single isomer, unassigned) [Compound 315a] | > 8.00 |
| O=C(NC1CC1)c1ccc(N2CCC(N3CCC(c4cc5cccc(F)c5c(=O)[nH]4)C3)CC2)cn1 (single isomer, unassigned) [Compound 339b] | > 8.00 |
| O=C(NC1CC1)c1ccc(N2CCC(N3CCC(c4cc5ncc(F)cc5c(=O)[nH]4)C3)CC2)cn1 (single isomer, unassigned) [Compound 372a] | > 8.00 |
| CNC(=O)c1ccc(N2CCC(N3CCC(c4nc5c(c(=O)[nH]4)CCC5)C3)CC2)cn1 (single isomer, unassigned) [Compound 283b] | > 8.00 |
| CCc1cc(C)c(C2CCN(C3CCN(c4ccc(C(=O)NC)nc4)CC3)C2)[nH]c1=O (single isomer, unassigned) [Compound 363b] | > 8.00 |
| CNC(=O)c1ccc(N2CCC(N3CCC(c4nc5c(c(=O)[nH]4)CCC5)C3)CC2)cn1 (single isomer, unassigned) [Compound 283a] | 6.00 to 7.00 |

Measured pKd, CNC(=O)c1ccc(N2CCC(N3CCC(c4cc5c(c(=O)[nH]4)CCCC5)C3)CC2)c(F)n1 (single isomer, unassigned) [Compound 337b] : > 8.00
